Experiment: Renal Toxicity Screening Protocol, toxicity compared to NSC-119875
Format: in vivo
Conditions: relative to NSC-119875
# Body Weight Loss score per entry
property_label: Body Weight Loss score

compound | property_label | endpoint_result
N[C@@H]1CCCC[C@H]1N.O=C([O-])c1ccc(C(=O)[O-])c(C(=O)[O-])c1.[H+].[Pt+2] | Body Weight Loss score | 3
N.N.O=C([O-])C1(C(=O)[O-])CCC1.[Pt+2] | Body Weight Loss score | 1
NC1CCCCC1N.O=S(=O)([O-])[O-].[Pt+2] (stereo not shown) | Body Weight Loss score | 2
CC(C)N.CC(C)N.[Cl-].[Cl-].[OH-].[OH-].[Pt] | Body Weight Loss score | 2

---

# Hematology - Hematocrit score per entry
Assay: Renal Toxicity Screening Protocol, toxicity compared to NSC-119875
Format: in vivo
Details: relative to NSC-119875

molecule | Hematology - Hematocrit score
N.N.O=C([O-])C1(C(=O)[O-])CCC1.[Pt+2] [NSC-241240] | 4
NC1CCCCC1N.O=S(=O)([O-])[O-].[Pt+2] (stereo not shown) [NSC-250427] | 3
N[C@@H]1CCCC[C@H]1N.O=C([O-])c1ccc(C(=O)[O-])c(C(=O)[O-])c1.[H+].[Pt+2] [NSC-271674] | 3
CC(C)N.CC(C)N.[Cl-].[Cl-].[OH-].[OH-].[Pt] [NSC-256927] | 4

---

Assay: Renal Toxicity Screening Protocol, toxicity compared to NSC-119875
Format: in vivo
Conditions: relative to NSC-119875
property_label: Histopathology - Lymphatic score

compound | property_label | endpoint_result
NC1CCCCC1N.O=S(=O)([O-])[O-].[Pt+2] (stereo not shown) [NSC-250427] | Histopathology - Lymphatic score | 2
N.N.O=C([O-])C1(C(=O)[O-])CCC1.[Pt+2] [NSC-241240] | Histopathology - Lymphatic score | 1
CC(C)N.CC(C)N.[Cl-].[Cl-].[OH-].[OH-].[Pt] [NSC-256927] | Histopathology - Lymphatic score | 4
N[C@@H]1CCCC[C@H]1N.O=C([O-])c1ccc(C(=O)[O-])c(C(=O)[O-])c1.[H+].[Pt+2] [NSC-271674] | Histopathology - Lymphatic score | 1

---

Assay: Renal Toxicity Screening Protocol, toxicity compared to NSC-119875
Type: in vivo
Settings: relative to NSC-119875

molecule | Histopathology - Hematopoietic score
N.N.O=C([O-])C1(C(=O)[O-])CCC1.[Pt+2] | 5
NC1CCCCC1N.O=S(=O)([O-])[O-].[Pt+2] (stereo not shown) | 4
N[C@@H]1CCCC[C@H]1N.O=C([O-])c1ccc(C(=O)[O-])c(C(=O)[O-])c1.[H+].[Pt+2] | 5
CC(C)N.CC(C)N.[Cl-].[Cl-].[OH-].[OH-].[Pt] | 4

---

# Histopathology - Renal score per entry
Experiment: Renal Toxicity Screening Protocol, toxicity compared to NSC-119875
Assay type: in vivo
Settings: relative to NSC-119875

compound | Histopathology - Renal score
N[C@@H]1CCCC[C@H]1N.O=C([O-])c1ccc(C(=O)[O-])c(C(=O)[O-])c1.[H+].[Pt+2] | 2
N.N.O=C([O-])C1(C(=O)[O-])CCC1.[Pt+2] | 1
CC(C)N.CC(C)N.[Cl-].[Cl-].[OH-].[OH-].[Pt] | 2
NC1CCCCC1N.O=S(=O)([O-])[O-].[Pt+2] (stereo not shown) | 2

Source listed as patent US4206207A.
